- experimental_target: Beta-galactosidase (Canavalia ensiformis)
- protocol_notes: Inhibition constant against beta-galactosidase enzyme of jack bean was reported
assay_readout: Ki (µM)
# output: bare number, implied unit µM

Name the reported Ki value associated with the molecule CC(=O)N[C@H]1C(O)O[C@H](C(O)CO)[C@@H]1C[C@H]1O[C@H](CO)[C@@H](O)[C@H](O)[C@@H]1O (stereo partly specified) 7.5
